- system.tested: T1, MPDZ_10, O75970
- T1 sequence (O75970 1624-1722, limits assumed, looked up): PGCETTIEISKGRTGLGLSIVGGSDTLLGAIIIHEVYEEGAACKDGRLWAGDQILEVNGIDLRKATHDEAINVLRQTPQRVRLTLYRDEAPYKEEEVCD
- assay.method.text: holdup assay
- Design: key: below the threshold = too weak to quantify, mostly under pKd 3.1 to 4
- test.context: plain residues with an end cap or a label only (N-terminal biotin on a linker: ado-ado)
property.measured: pKd

// lookup pKd for TRKRSGEAAV [PFKM, P08237]
below the threshold

Looking for the measured pKd of REEPDHSTEV [CCRL2, O00421] , can you help?
3.7

I am curious: what pKd value has been reported for TISFTQTSQF [SLC1A1, P43005] ?
below the threshold

Query: pKd; subject: QSYPSKHDYV [CLDN18, P56856]
3.64

Would you mind telling me what pKd value was observed for VKRNSKETVV [MARCHF3, Q86UD3] ?
below the threshold

Answer for every listed entry: what is its pKd? The entries follow.
1. PPGKHLVTEV [KCNA7, Q96RP8]
2. RSSGGDDFWF [KCNV1, Q6PIU1]
3. ELSATVTTDC [TRIP6, Q15654]
4. EIPAQSPTCV [FZD10, Q9ULW2]
5. KSRVAFFEEL [NF2, P35240;P35240-1]
6. EKCGKEFSEF [PRKACA, P17612]
7. DFLSTFHIRI [CIB2, O75838]

below the threshold
below the threshold
below the threshold
3.89
below the threshold
below the threshold
below the threshold

The reported numbers originate from paper PMC9482650.
